Origin of values: patent US20220396632A1

Target: T1, Human complement C4 protein (Millipore Sigma, Cat. 204886) (human, UniProt P0C0L4 20-675; P0C0L4 680-1446; P0C0L4 1454-1744, limits assumed, natural sulfotyrosines)
T1 construct: mature
T1 sequence (P0C0L4 20-675 limits assumed, form in doubt, chain 1 of 3): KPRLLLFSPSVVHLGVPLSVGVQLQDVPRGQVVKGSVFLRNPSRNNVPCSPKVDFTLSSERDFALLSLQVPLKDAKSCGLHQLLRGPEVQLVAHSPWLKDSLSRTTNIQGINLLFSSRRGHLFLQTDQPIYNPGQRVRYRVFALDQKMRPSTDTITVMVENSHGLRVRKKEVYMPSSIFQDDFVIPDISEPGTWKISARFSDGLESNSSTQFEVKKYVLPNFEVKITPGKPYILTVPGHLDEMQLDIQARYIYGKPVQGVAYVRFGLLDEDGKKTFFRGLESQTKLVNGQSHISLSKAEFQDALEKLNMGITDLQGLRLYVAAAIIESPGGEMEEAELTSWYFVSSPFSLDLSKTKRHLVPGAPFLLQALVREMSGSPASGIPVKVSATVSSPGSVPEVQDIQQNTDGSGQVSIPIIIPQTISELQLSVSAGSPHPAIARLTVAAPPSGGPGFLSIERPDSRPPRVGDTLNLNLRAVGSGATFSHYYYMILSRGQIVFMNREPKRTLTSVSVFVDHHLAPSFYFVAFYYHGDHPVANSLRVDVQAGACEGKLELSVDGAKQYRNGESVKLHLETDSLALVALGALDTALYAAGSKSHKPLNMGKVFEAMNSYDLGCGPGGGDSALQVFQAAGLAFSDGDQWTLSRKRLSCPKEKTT
T1 sequence (P0C0L4 680-1446 limits assumed, form in doubt, chain 2 of 3): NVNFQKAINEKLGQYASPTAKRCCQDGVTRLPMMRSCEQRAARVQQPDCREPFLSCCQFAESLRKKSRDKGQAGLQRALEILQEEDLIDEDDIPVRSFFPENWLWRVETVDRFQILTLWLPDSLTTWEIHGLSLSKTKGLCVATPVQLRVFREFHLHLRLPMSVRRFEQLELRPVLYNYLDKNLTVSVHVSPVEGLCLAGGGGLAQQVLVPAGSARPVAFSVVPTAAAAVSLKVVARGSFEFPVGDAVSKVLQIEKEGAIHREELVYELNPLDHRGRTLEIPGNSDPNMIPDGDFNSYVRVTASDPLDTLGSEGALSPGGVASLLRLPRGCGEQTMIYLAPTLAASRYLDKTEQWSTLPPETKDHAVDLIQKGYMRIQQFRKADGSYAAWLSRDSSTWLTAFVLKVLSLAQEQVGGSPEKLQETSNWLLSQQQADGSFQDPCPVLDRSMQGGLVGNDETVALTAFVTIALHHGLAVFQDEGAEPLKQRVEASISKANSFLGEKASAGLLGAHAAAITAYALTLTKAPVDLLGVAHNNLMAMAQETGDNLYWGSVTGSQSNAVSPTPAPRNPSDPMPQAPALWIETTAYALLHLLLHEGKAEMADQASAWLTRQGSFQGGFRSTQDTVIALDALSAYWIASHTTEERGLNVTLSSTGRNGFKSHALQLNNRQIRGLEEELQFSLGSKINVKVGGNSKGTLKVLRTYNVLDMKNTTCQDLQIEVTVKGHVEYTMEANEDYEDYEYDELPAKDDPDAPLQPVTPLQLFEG
T1 sequence (P0C0L4 1454-1744 limits assumed, form in doubt, chain 3 of 3): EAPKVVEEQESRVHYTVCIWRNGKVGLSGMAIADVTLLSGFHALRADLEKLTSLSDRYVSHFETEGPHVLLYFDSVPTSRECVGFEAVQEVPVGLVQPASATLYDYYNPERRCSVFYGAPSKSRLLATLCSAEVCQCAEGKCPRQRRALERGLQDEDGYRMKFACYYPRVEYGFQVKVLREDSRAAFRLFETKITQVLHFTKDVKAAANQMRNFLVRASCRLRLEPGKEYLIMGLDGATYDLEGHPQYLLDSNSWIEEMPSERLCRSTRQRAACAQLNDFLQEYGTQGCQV
Test: ELISA, 50 nM mAb
reportedEndpoint: binding normalized to PSGL-1
Please give the numeric answer without any surrounding text.

binder: 09A08 (antibody, IgG4, V domains shown) VH: QVQLVQSGAAVKKPGESLKISCKGSGYTFSNYWIGWVRQMPGKGLEWMGIIYPGDSDTRYSPSFQGQVTISADKSISTAYLQWSSLKASDTAMYYCARHIVGPPKSAFDIWGQGTMVTVSS VL: DIVMTQTPLSLPVTLGQPASISCSSSQGLQKRDGNTYLNWFQQRPGQSPRRLIYKVSNRDSGVPDRFSGSGSGTDFTLKISRVEAEDVGVYYCMQGTHWPWTFGQGTRVEIK
binding normalized to PSGL-1: 0.22

Now let's try a different one.
Q: binding normalized to PSGL-1 lookup needed for 09D04 (antibody, IgG4, V domains shown) VH: QVQLQQSGGGLVQPGGSLTLSCVGSGFDFRSYAMSWVRQAPGKGLEWVSGINNSGSKTYYADFVKGRFSVSRDNSKNIVWLRMRSLRAEDTAVYYCARRTFGPPHAWGQGTMVTVSS VL: DVVMTQSPLSLPVTPGEPASISCRSSQSLLHSNGYTYLEWYLHKPGQSPQLLIYLGSNRASGVPDRFSGSGSGTDFTLKISRVEAEDVGVYYCMHSLHIPFTFGPGTKVDIK , thanks.
A: 0.61
